# procedureText: qHTS for Inhibitors of Bloom's syndrome helicase (BLM): Thiazole Orange DNA Binding Counterscreen for SAR.
# experimentalContext: fluorescence; Thiazole orange DNA displacement; series mostly up to 57.1 µM
Results filed as inconclusive are left out. Active and inactive are the calls of the source. Calls come from the whole dose curve; as a rule, active = well fitted curve in the direction sought with a large enough effect; inconclusive = small, poorly fitted or top-dose-only effect, or another doubt; inactive = no such curve, though single readings can be large or run the other way.
# output must be one of active, inactive

Ask | What outcome does the record of this test show for COc1ccc(OC)c(-c2nnc(NC(=O)Nc3ccc4ccccc4c3)s2)c1 ?
Reply | inactive

Ask | Any idea what this test logged for O=C(Nc1ccc(F)c(C(F)(F)F)c1)Nc1nnc(-c2ccncc2)o1 ?
Reply | inactive

Ask | How was O=C(Nc1nnc(-c2ccncc2)s1)Nc1cccc2ccccc12 classified in this test?
Reply | inactive

Ask | Write down the call the test reported for this compound. Item: O=C(Nc1ccc(Cl)c(Cl)c1)Nc1cccc(-c2ccncc2)n1
Reply | inactive

Ask | Look up the recorded call for Cc1cc(NC(=O)Nc2nnc(-c3ccncc3)s2)ccc1F in this test.
Reply | inactive

Ask | Could you check what this test reported for O=C(Cc1nnc(-c2ccncc2)s1)Nc1ccc(F)c(C(F)(F)F)c1 ?
Reply | inactive

Ask | // param item: CCOC(=O)c1cccc(NC(=O)Nc2nnc(-c3ccncc3)s2)c1 ; yields the recorded call
Reply | inactive

Ask | For N/C(=N\c1nnc(-c2ccncc2)s1)Nc1ccc(Cl)c(Cl)c1 , what call appears in the results of this test?
Reply | inactive

Ask | Assay result, entry O=C(Nc1ccc2sccc2c1)Nc1nnc(-c2ccncc2)s1 — outcome?
Reply | inactive

Ask | Short answer needed: outcome of this test for O=C(Nc1ccc(-n2cncn2)c(F)c1)Nc1nnc(-c2ccncc2)s1 ?
Reply | inactive

Ask | What was the test verdict on O=C(Nc1ccccc1)Nc1nnc(-c2ccncc2)s1 ?
Reply | inactive

Ask | Given CC(C)(C)c1cccc(NC(=O)Nc2nnc(-c3ccncc3)s2)c1 , state the outcome it received in this test.
Reply | inactive

Ask | Name the outcome recorded for O=C(Nc1ccc(Cl)c(C(F)(F)F)c1)Nc1nnc(-c2cccnc2)s1 in the assay.
Reply | inactive

Ask | In this assay, the call recorded for CCCCCCNC(=O)Nc1nnc(-c2ccncc2)s1 was what?
Reply | inactive

Ask | Dear all, I need the recorded test outcome for O=C(Nc1ccc2ccccc2c1)Nc1nnc(-c2ccc(Cl)cc2)s1 , thank you.
Reply | inactive

Ask | // outcome(item) with item = O=C(Nc1ccc(Cl)c(Cl)c1)Nc1nnc(Br)s1
Reply | inactive

Ask | Per the records of this test, what outcome belongs to N#Cc1ccc(NC(=O)Nc2nnc(-c3ccncc3)s2)c(Cl)c1 ?
Reply | inactive

Ask | Each compound tested received a call. Report the one for Cc1cc(NC(=O)Nc2cccc(-c3ccncc3)n2)ccc1Cl .
Reply | inactive

Ask | Look up the recorded call for COc1ccc(-c2nnc(NC(=O)Nc3ccc4ccccc4c3)s2)cc1OC in this test.
Reply | inactive

Ask | Per the records of this test, what outcome belongs to O=C(Nc1ccc(-c2nc3ccccc3[nH]2)cc1)Nc1ccc2c(c1)OCCO2 ?
Reply | inactive

Ask | What did this assay record as the result for Cc1cc(NC(=O)Nc2cccc(-c3ccncc3)n2)ccc1F ?
Reply | inactive

Ask | Recorded test call requested for O=C(Nc1ccc(Cl)cc1)Nc1nnc(-c2ccncc2)s1
Reply | inactive

Ask | Given CC(C)(C)NC(=O)Nc1nnc(-c2ccncc2)s1 , state the outcome it received in this test.
Reply | inactive

Ask | Called result for O=C(Nc1ccc(Cl)c(C(F)(F)F)c1)Nc1cccc(-c2ccncc2)n1
Reply | inactive

Ask | Lab log entry: O=c1c(Nc2ccc(Cl)c(Cl)c2)c(Nc2nnc(-c3ccncc3)s2)c1=O — outcome as called in the assay?
Reply | active

Ask | Can you look up the reported call for O=C(NCc1ccccc1)Nc1nnc(-c2ccncc2)s1 for me?
Reply | inactive

Ask | # outcome recorded in this test, key = O=C(Nc1ccc(F)c(C(F)(F)F)c1)Nc1nnc(-c2ccncc2)s1
Reply | inactive

Ask | What classification did Cc1cc(C)c(-c2nnc(NC(=O)Nc3ccc4ccccc4c3)s2)c(C)c1 end up with in this test?
Reply | inactive

Ask | What outcome does the record of this test show for O=C(Nc1ccc(N2CCOCC2)c(C(F)(F)F)c1)Nc1nnc(-c2ccncc2)s1 ?
Reply | active

Ask | Outcome logged for Cc1cc(NC(=O)Nc2nnc(C3CCCCC3)s2)ccc1Br in this assay:
Reply | inactive

Ask | Test call, this compound: O=S(=O)(Cc1ccc(Cl)c(Cl)c1)Nc1nnc(-c2ccncc2)s1
Reply | inactive

Ask | Which outcome was entered for the compound O=C(Nc1ccc(F)c(C(F)(F)F)c1)Nc1nnc(-c2cccnc2)s1 in this test?
Reply | inactive

Ask | Hey, what did the test say about N#CN/C(=N\c1nnc(-c2ccncc2)s1)Nc1ccc(F)c(C(F)(F)F)c1 ?
Reply | inactive

Ask | GET /call?item= O=C(Nc1nnc(-c2ccncc2)s1)Nc1ccc(Cl)cc1F returns the recorded outcome of this test.
Reply | inactive

Ask | Lab log entry: CCOc1ccc(NC(=O)Nc2ccc(-c3nc4ccccc4[nH]3)cc2)cc1 — outcome as called in the assay?
Reply | inactive

Ask | Look up the recorded call for O=C(Nc1ccc2sccc2c1)Nc1nnc(-c2cccnc2)s1 in this test.
Reply | inactive

Ask | Please indicate how the test categorized S=C(Nc1ccc(Cl)c(Cl)c1)Nc1nnc(-c2ccncc2)o1 .
Reply | inactive

Ask | Look up the recorded call for Cc1cc(NC(=O)Nc2nnc(C3CCCCC3)s2)ccc1F in this test.
Reply | inactive

Ask | What call does the record list for O=C(Nc1ccc(Cl)c([N+](=O)[O-])c1)Nc1cccc(-c2ccncc2)n1 ?
Reply | inactive

Ask | Recorded test call requested for Cc1cnccc1-c1nnc(NC(=O)Nc2ccc(F)c(C(F)(F)F)c2)s1
Reply | inactive

Ask | Status in this test for O=C(Nc1ccc2ccccc2c1)Nc1nnc(-c2cccnc2)s1 ?
Reply | inactive

Ask | Each compound tested received a call. Report the one for O=C(Nc1ccc(Cl)c(Cl)c1)Nc1ncc(-c2ccncc2)s1 .
Reply | inactive

Ask | Returns: the outcome recorded for Cc1cc(NC(=O)Nc2nnc(C3CCCCC3)s2)ccc1Cl in this assay.
Reply | inactive

Ask | How was O=C(Nc1ccc2ccccc2c1)Nc1nnc(-c2ccncc2)o1 classified in this test?
Reply | inactive

Ask | What classification did O=C(Nc1ccc(-c2nc3ccccc3[nH]2)cc1)Nc1ccc2c(c1)CCCO2 end up with in this test?
Reply | inactive
